molecular target: human RORγt ligand binding domain (RORγt LBD) (Homo sapiens, UniProt P51449); construct: His-tag (N); TurboTEV protease cleavage site (ENLYFQG) (N); assay: RORγt ThermoFluor assay; settings: estimated from thermal shift concentration response
readout_label: log10(Kd) (log10 of the value in nM)
Log10 applied to Kd; unit prior to transform: nM.

smiles_record: C[C@H](NS(=O)(=O)c1ccc(-c2sc(-c3nnc(C(C)(C)O)[nH]3)nc2C(=O)N2CC(F)(F)C[C@@H]2C)c(Cl)c1Cl)C(F)(F)F
target_desc: human RORγt ligand binding domain (RORγt LBD) (Homo sapiens, UniProt P51449)
log10(Kd): -0.15
//
smiles_record: C[C@H]1CCCN1C(=O)c1nc(-c2nnc(C(C)(C)O)o2)sc1-c1ccc(OCC(O)(C(F)(F)F)C(F)(F)F)cc1C(F)(F)F
target_desc: human RORγt ligand binding domain (RORγt LBD) (Homo sapiens, UniProt P51449)
log10(Kd): 1.04
//
smiles_record: CC(C)(O)c1nnc(-c2nc(C(=O)N3CCC(F)(F)CC3)c(-c3ccc(S(=O)(=O)NC4(C(F)F)CC4)c(F)c3Cl)s2)o1
target_desc: human RORγt ligand binding domain (RORγt LBD) (Homo sapiens, UniProt P51449)
log10(Kd): 1.32
//
smiles_record: Cc1c(S(=O)(=O)N[C@@H](C)C(F)(F)F)ccc(-c2sc(-c3nnc(C(C)(C)O)o3)nc2C(=O)N2CCC(F)(F)CC2)c1F
target_desc: human RORγt ligand binding domain (RORγt LBD) (Homo sapiens, UniProt P51449)
log10(Kd): 0.70
//
smiles_record: C[C@H](NS(=O)(=O)c1ccc(-c2sc(-c3cc(C(C)(C)O)on3)nc2C(=O)N2CCC(F)CC2)c(Cl)c1Cl)C(F)(F)F
target_desc: human RORγt ligand binding domain (RORγt LBD) (Homo sapiens, UniProt P51449)
log10(Kd): 0.69

# evaluate next
Recorded result, CCN(CC)C(=O)c1nc(-c2cc(C(C)(C)O)ncn2)sc1-c1ccc(S(=O)(=O)N[C@@H](C)C(F)(F)F)c(Cl)c1Cl , log10(Kd): 0.45

* * *

Molecular target: full-length human RORγt (Homo sapiens)
Construct: expressed in transfected cells; host or cells: HEK293T, transiently transfected with pCMV-BD-ROR
Sequence (P51449 1-497 isoform P51449-2): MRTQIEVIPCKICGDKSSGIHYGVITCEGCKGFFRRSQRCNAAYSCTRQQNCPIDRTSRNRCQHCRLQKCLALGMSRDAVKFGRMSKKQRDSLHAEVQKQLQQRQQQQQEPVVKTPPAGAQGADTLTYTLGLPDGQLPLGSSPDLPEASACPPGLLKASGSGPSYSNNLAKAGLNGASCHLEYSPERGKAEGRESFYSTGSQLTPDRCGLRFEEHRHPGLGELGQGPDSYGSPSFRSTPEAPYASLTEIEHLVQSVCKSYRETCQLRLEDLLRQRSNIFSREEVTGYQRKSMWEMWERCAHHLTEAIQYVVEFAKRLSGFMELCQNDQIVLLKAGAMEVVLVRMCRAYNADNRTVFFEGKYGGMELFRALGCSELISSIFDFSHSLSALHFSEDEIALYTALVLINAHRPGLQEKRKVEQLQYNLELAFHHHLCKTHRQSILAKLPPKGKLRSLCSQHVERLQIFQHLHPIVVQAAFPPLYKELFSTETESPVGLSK
Assay: RORγt (full-length human) Reporter Assay, Conditions A
Type: cell-based
Details: read-out: RORγt (FL) Reporter Assay A, % inhibition @ 6 μM; 6 μM compound
readout_label: inhibition at 6 µM (%)
Write the value in % as a bare number.

compound: CC[C@H](NS(=O)(=O)c1ccc(-c2sc(-c3noc(CC(C)(C)C(=O)O)n3)nc2C(=O)N2CCC(F)(F)CC2)c(OC(F)(F)F)c1)C(F)(F)F
reading_unit: %
inhibition at 6 µM: 106

Sure, the documented inhibition at 6 µM for CC[C@H](NS(=O)(=O)c1ccc(-c2sc(-c3nnc(C(C)(C)O)o3)nc2C(=O)N2CCC(F)(F)CC2)c(Cl)c1F)C(F)(F)F is 107

Input C[C@H](NS(=O)(=O)c1ccc(-c2sc(-c3nnc(C(C)(C)O)o3)nc2C(=O)N2CC(F)C[C@@H]2C)c(C(F)F)c1F)C(F)(F)F (stereo partly shown) . Output inhibition at 6 µM: 102

The compound identified as CC[C@H](NS(=O)(=O)c1ccc(-c2sc(-c3noc(CC(C)(C)C(=O)O)n3)nc2C(=O)N2CCCC[C@@H]2C)c(C(F)F)c1Cl)C(F)(F)F registered its inhibition at 6 µM at 99
